# MEASURED ON: T1, N15 Cro (bacteriophage N15, UniProt Q37964 1-71)
# T1 sequence: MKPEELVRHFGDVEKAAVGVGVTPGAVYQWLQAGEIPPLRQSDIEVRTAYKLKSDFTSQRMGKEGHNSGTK
# RUN DESCRIPTION: EMSA
MEASURE: Kd
In your response, put the unit directly after the numeric value.

Q: GET /values?readout=Kd&item= N15 OR3 28 bp (dsDNA) DNA 1: GCAAAATTATAGCCAGCTATAAAGAGCG DNA 2: CGCTCTTTATAGCTGGCTATAATTTTGC
A: 90 nM
